Target entity: UniProtKB P49841
Sequence (P49841 whole entry): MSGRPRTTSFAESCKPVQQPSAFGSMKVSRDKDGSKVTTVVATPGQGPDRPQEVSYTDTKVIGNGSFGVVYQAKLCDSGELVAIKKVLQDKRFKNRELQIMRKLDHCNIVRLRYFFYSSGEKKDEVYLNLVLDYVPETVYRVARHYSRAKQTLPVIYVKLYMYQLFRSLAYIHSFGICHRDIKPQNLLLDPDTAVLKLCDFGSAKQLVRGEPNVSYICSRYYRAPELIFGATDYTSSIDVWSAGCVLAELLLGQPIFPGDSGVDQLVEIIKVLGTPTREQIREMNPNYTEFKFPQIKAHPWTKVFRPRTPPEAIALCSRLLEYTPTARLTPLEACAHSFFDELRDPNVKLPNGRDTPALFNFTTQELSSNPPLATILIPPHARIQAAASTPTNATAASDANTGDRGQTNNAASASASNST
Hi there, I'd appreciate the recorded Ki for every entry that follows.
Give bare numbers, in nM.

{"columns": ["Molecule", "Readout value"],
 "data": [
  ["Cc1cn(CC(C)C)c(-c2nonc2N)n1", 690],
  ["Cc1ccc2c(c1)nc(-c1nonc1N)n2C1CCC1", 3200],
  ["Nc1nonc1-c1nc2ccccc2n1C1CCC1", 380],
  ["N#Cc1ccc(-n2c(-c3nonc3N)nc3ccccc32)cc1", 1000],
  ["CCn1c(-c2nonc2N)nc2ccccc21 [GW549034X]", 700],
  ["Nc1nonc1-c1nc2ccccc2n1C1CCCC1", 210]
]}

List the reported Ki of each molecule below.
1. Nc1nonc1-c1nc2ccccc2n1CC1CC1
2. Nc1ccc2c(c1)nc(-c1nonc1N)n2C1CCC1
3. Nc1nonc1-c1nc2ccccc2n1-c1ccccc1
4. Nc1nonc1-c1nc2ccccc2n1C1CCCCC1

[290, 2100, 620, 240]
